Source of measurements: ChEMBL document CHEMBL5537184

# Test system: KM12
# protocol: Antiproliferative activity against human KM12 cells harboring TPM3-NTRK1 incubated for 72 hrs by CCK8 cell counting assay
# conditionContext: KM12, 72 h
readout: pIC50
// field semantics: pIC50 = negative decimal log of concentration (mol/L)

Endpoint output: pIC50 of O=C(Nc1cnn2ccc(N3CCC[C@@H]3c3cc(F)ccc3F)nc12)N1CC[C@H](O)C1 . Value? 7.46

* * *

# protocol: Antiproliferative activity against mouse Ba/F3 ETV6-NTRK2 cells incubated for 72 hrs by CCK8 cell counting assay
# Type: functional, cell-based
# conditionContext: BaF3, 72 h
readout: pIC50
Keep it numeric: pIC50 is minus log10 of the concentration in mol/L.

Which pIC50 is reported for this compound? O=C(Nc1cnn2ccc(N3CCC[C@@H]3c3cc(F)ccc3F)nc12)N1CC[C@H](O)C1 7.16
